# Test: yeast display, Sf9 membrane polyspecificity reagent, FACS + sequencing; frameworks hold sequencing errors
Measured Attribute: polyreactivity (PSR sort gate)

1. QVQLVESGGGLVQAGGSLRLSCAASGSIFRGNAMGWYRQAPGKERELVAAISGSAGRTYYADSVKGRFTISRDNAKNTVYLQMNSLKPEDTAVYYCAADSFKGYDYWGQGTQVTVSS = high polyreactivity
2. QVQLVESGRGLVQAGGSLRLRGAASGSTSWSNAMGWYRQAPGKERELVAAITTGASTYYADSVKGRFTSSRDNAKNTVYLQMNSLKPEDTAVYYCAADPWVLWSYYYWGQGTQVTVSS = low polyreactivity
3. QVQLVESGGGLVQAGGSLRLSCAASGRTFRNYAMGWYRQAPGKERELVAGITSGGSTNYADSVKGRFTISRDNAKNTVYLQMNSLKPEDTAVYYCNAVRPFYWFWYYGYWGQGTQVTVSS = low polyreactivity
4. QVQLVESGGGLVQAGGSLRLICAASGFIFGGYGMGWYRQAPGKERELVAVITASGGSTYYADSVKGRFTISRDNAKNTVYLQMNSLKPEDTAVYYCAARVGRYGYSQYYYWGQGTQVTVSS = high polyreactivity

Prompt: So what does the record say about polyreactivity (PSR sort gate) for "QVQLVESGGGLVQAGGSLRLSCAASGRIFRVYTMGWYRPAPGKESELVAAISRGGSTNYADSVKGRFTISRDNAKNTVYLQMNSLKPEDTAVYYCAARYPNLRRRWYYYWGQGTQVTVSS" ?
Response: high polyreactivity

Prompt: So what does the record say about polyreactivity (PSR sort gate) for "QVQLVESGGGLVQAGGSLRLSCAASGRIFANNAMGWYRQAPGKERELVAAISWRSGGTYYADSVKGRFTISRDNAKNTVYLQMNSLKPEDTAVYYCARRSPHHGRDYWGQGTQVTVSS" ?
Response: low polyreactivity
